Tested on: SF-539 CNS
Experiment: NCI tumour cell line growth inhibition, 48 h

# compound, test.target, TGI
rows = [
    ("COc1ccc(N2C(=O)C3c4[nH]c5ccccc5c4C4CCCCCCCCCC4C3C2=O)cc1 (configuration not stated)", "SF-539 CNS", "> 10 µM"),
    ("Cc1cccc(N=Nc2ccc(N=Nc3c(O)ccc4ccccc34)cc2C)c1", "SF-539 CNS", "> 100 µM"),
    ("O=C(O)CCCCCCCCC(=O)O", "SF-539 CNS", "> 79.3 µM"),
    ("CCOC(=O)C(NC(=O)Nc1ccc(Cl)cc1)(OC)C(F)(F)F (configuration not stated)", "SF-539 CNS", "> 100 µM"),
    ("CC(=O)n1nc(-c2ccccc2)n(/N=C/c2ccc([N+](=O)[O-])o2)c1=O", "SF-539 CNS", "18.4 µM"),
    ("O=C1c2cccc(O)c2C(=O)c2c(OC3OC(CO)C(O)C(O)C3O)cccc21 (configuration not stated)", "SF-539 CNS", "58.1 µM"),
    ("O=C(O)CN(CC(=O)O)C(C(=O)O)c1ccccc1 (configuration not stated)", "SF-539 CNS", "> 100 µM"),
    ("O=C1c2ccccc2-c2c1c1ccccc1c(=O)n2CCNCCn1c2c(c3ccccc3c1=O)C(=O)c1ccccc1-2", "SF-539 CNS", "> 25 µM"),
    ("CCNCCNc1cc(-c2ccc(C#N)cc2)c(C#N)c2nc3ccccc3n12", "SF-539 CNS", "3.49 µM"),
    ("CCCCCCCCCCCCCCCCCCOCC(COCCOCC[N+]1(CCCCCC(=O)[O-])CCCC1)Oc1ncccn1 (configuration not stated)", "SF-539 CNS", "15.8 µM"),
    ("COc1ccc(Nc2nccc(N3CCN(c4c5ccc(Cl)cc5nc5ccc(OC)cc45)CC3)n2)cc1", "SF-539 CNS", "> 100 µM"),
    ("CC1(C)OC2COC3([C@@H]4OC(C)(C)O[C@@H]4CO)OC(C)(C)OC3C2O1 (some centres not stated)", "SF-539 CNS", "> 100 µM"),
    ("CN1c2ccccc2SC2C(c3ccccc3)=NOC21 (configuration not stated)", "SF-539 CNS", "> 100 µM"),
    ("COc1ccc(NC(C)c2ccncc2)cc1 (configuration not stated)", "SF-539 CNS", "> 100 µM"),
    ("COc1c(O)c(OC)c2oc(-c3ccc(O)cc3)c(OC)c(=O)c2c1O", "SF-539 CNS", "> 100 µM"),
    ("O=C1/C(=C/c2cccc([N+](=O)[O-])c2)Sc2scc(-c3ccc([N+](=O)[O-])cc3)[n+]21", "SF-539 CNS", "> 100 µM"),
    ("COC(=O)[C@H](Cc1ccccc1)NC(=O)N(CCC#N)CCN(C(=O)N[C@@H](Cc1ccccc1)C(=O)OC)c1ccccc1", "SF-539 CNS", "41.1 µM"),
]

----------
Tested on: CCRF-CEM leukemia
Experiment: NCI tumour cell line growth inhibition, 48 h
readout: TGI

# compound, observed.measurement
measured = [
    ("Cn1c(=O)nc2n(-c3ccc(Cl)c(C(F)(F)F)c3)c3ccccc3nc-2c1=O", "> 100 µM"),
    ("CC1(C)CC(=O)C(CC2C(=O)c3ccccc3C2=O)C(=O)C1", "> 100 µM"),
    ("Cc1cccc(C)c1N1C(=O)C(=O)C(c2nc3ccccc3s2)/C(=N/NC(=O)NN)C1=O (stereo unspecified)", "> 100 µM"),
    ("COc1cc(C2c3cc4c(cc3[C@@H](Nc3ccc5c(c3)OCCO5)C3COC(=O)[C@H]23)OCO4)cc(OC)c1O (stereo partly specified)", "2.28 µM"),
    ("c1cnn2ncc(-c3ccnc(Nc4ccc5c(c4)OCCO5)n3)c2c1", "> 25 µM"),
    ("O=C1CS(=O)(=O)C(c2cccc(Oc3ccccc3)c2)N1c1cc(Cl)ccc1Cl (stereo unspecified)", "> 100 µM"),
    ("COc1ccc2c(c1)c(=O)c1c(NCCNCCO)ccc3c(=O)n(CCN(C)C)c(=O)n2c31", "> 100 µM"),
    ("O=C(CC(=O)Nc1ccccc1)NNC(c1cc(N=Nc2ccc(Br)cc2)ccc1O)P(O)O (stereo unspecified)", "8.25 µM"),
    ("CCOC(=O)C1(Cc2ccc3ccccc3c2)CCCCC(=O)N1 (stereo unspecified)", "> 100 µM"),
    ("CC1OC(c2ccc3c(c2O)C(=O)C2=C(C3=O)C3(O)C(=O)CC(C)(O)CC3(O)C=C2)CC(O)C1O (stereo unspecified)", "5.27 µM"),
    ("COc1ccc(C2Oc3c(c(O)cc4c3[C@H](c3ccc(O)cc3O)[C@H](O)C(c3ccc(O)c(O)c3)O4)C[C@@H]2O)cc1O (stereo partly specified)", "> 100 µM"),
]
